Tested on: HBV
Assay: Anti-HBV activity in HepG2.117 cell line (intracellular HBV DNA, real-time PCR)
Type: cell-based, hepatitis B virus
Settings: HepG2.117 cells, HBV replication induced, 3 days of treatment, intracellular HBV DNA by real-time PCR
MEASURED PARAMETER: EC50 (µM)
Unit µM implied. Number only.

Record CNC(=O)[C@@H]1CN(C(C)c2ccc(OC(F)F)c(F)c2)C(=O)c2c3c(nn21)C[C@@H](C)N(C(=O)c1ccc(Cl)c(Cl)c1)C3 (single isomer, unassigned) [Compound 24B] , field EC50: 0.013

Record CNC(=O)[C@@H]1CN(C(C)c2ccc(-c3nnnn3C)cc2)C(=O)c2c3c(nn21)C[C@@H](C)N(C(=O)c1ccc(Cl)c(Cl)c1)C3 (single isomer, unassigned) [Compound 29B] , field EC50: 0.082

Record CNC(=O)[C@@H]1CN(C(C)c2ccc(-n3ncnc3C)cn2)C(=O)c2c3c(nn21)C[C@@H](C)N(C(=O)c1ccc(Cl)c(Cl)c1)C3 (single isomer, unassigned) [Compound 41A] , field EC50: 2.21
